# Assay system: F876L mutant Androgen Receptor (AR-F876L) (Homo sapiens (Human), UniProt P10275, F877L)
# Sequence (P10275 whole entry F877L): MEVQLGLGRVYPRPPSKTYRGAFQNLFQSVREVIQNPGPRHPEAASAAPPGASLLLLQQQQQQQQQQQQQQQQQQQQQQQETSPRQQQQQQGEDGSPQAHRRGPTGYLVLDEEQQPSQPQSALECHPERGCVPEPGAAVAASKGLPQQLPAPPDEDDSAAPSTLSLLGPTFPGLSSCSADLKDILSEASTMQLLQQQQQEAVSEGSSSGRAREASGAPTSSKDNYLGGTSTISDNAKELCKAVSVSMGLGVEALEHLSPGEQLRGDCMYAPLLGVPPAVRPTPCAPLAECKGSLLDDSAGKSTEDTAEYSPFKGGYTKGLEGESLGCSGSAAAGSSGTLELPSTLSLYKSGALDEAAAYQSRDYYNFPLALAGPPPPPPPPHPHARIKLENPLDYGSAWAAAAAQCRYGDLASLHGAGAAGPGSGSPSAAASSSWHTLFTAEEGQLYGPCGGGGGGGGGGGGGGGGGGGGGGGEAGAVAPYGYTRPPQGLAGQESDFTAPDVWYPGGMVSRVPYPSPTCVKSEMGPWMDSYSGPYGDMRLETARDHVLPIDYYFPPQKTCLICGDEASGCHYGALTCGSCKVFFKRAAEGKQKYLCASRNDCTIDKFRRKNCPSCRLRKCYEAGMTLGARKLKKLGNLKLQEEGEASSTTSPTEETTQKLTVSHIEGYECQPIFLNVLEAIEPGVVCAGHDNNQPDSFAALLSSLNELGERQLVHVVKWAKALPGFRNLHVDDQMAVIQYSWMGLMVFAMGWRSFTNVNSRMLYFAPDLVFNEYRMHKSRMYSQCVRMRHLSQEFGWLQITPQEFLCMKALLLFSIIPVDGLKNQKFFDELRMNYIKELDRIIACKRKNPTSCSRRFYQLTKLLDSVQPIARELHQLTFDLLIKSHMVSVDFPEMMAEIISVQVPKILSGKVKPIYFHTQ
# Experimental details: LNCaP-AR-F876L ANT reporter assay (antagonist mode)
# Type: cell-based
# Conditions used: antagonist mode; maximum % inhibition of R1881 control response over tested concentration range; read-out: LNCaP-AR-F876L ANT MAX % Inh
Quantity kind: Emax (%)
Note: unit % is implicit; provide only the numeric part.

Input line: I'd like to know its Emax. The molecule in question is COc1cc(N2C(=O)C3(CCC3)N(c3ccc(CN4CCNCC4)cc3)C2=S)cnc1C#N
Output line: 101

Input line: And the next one, Cc1cc(N2C(=O)C3(CCC3)N(c3cnc(OC4CCN(C)CC4)nc3)C2=S)cnc1C#N ?
Output line: 99.4

Input line: And the next one, N#Cc1ncc(N2C(=O)C3(CCC3)N(c3ccc(CC4CCC(N)CC4)cc3)C2=S)cc1C(F)(F)F (stereo not drawn) ?
Output line: 103

Input line: And the next one, N#Cc1ncc(N2C(=O)C3(CCC3)N(c3ccc4ccn(CCO)c4c3)C2=S)cc1C(F)(F)F ?
Output line: 101

Input line: And the next one, N#Cc1ncc(N2C(=O)C3(CCC3)N(c3cnc(OC4CCN(CCO)CC4)nc3)C2=S)cc1C(F)(F)F ?
Output line: 100

Input line: And the next one, C[N@+]1([O-])CC[C@H](Oc2ccc(N3C(=S)N(c4cnc(C#N)c(C(F)(F)F)c4)C(=O)C34CCC4)cc2)CC1 ?
Output line: 97.4

Input line: And the next one, CN1CCN(Cc2ccc(N3C(=S)N(c4cnc(C#N)c(Cl)c4)C(=O)C34CCC4)cc2)CC1 ?
Output line: 101

Input line: And the next one, CN(C(=O)OC(C)(C)C)C1(COc2ccc(N3C(=S)N(c4cnc(C#N)c(C(F)(F)F)c4)C(=O)C34CCC4)cc2)COC1 ?
Output line: 99.9

Input line: And the next one, Cc1cc(N2C(=O)C3(CCC3)N(c3ccc(CC4CCN(C)CC4)cc3)C2=S)cnc1C#N ?
Output line: 101

Input line: And the next one, N#Cc1ncc(N2C(=O)C3(CCC3)N(c3ccc(SC4CCNCC4)cc3)C2=S)cc1C(F)(F)F ?
Output line: 105

Input line: And the next one, N#Cc1ncc(N2C(=O)C3(CCC3)N(c3ccc(CN4CCOCC4)cc3)C2=S)cc1C(F)(F)F ?
Output line: 100

Input line: And the next one, N#Cc1ncc(N2C(=O)C3(CCC3)N(c3ccc(O[C@H]4CCN[C@H](CO)C4)cc3)C2=S)cc1C(F)(F)F (racemic) ?
Output line: 99.6

Input line: And the next one, Cc1cc(N2C(=O)C3(CCC3)N(c3cnc(OC4CCN(CCO)CC4)nc3)C2=S)cnc1C#N ?
Output line: 99.3

Input line: And the next one, Cc1nc2cc(N3C(=S)N(c4cnc(C#N)c(C(F)(F)F)c4)C(=O)C34CCC4)ccc2[nH]1 ?
Output line: 102

Input line: And the next one, CN1CC[C@@H](Oc2ccc(N3C(=S)N(c4cnc(C#N)c(C(F)(F)F)c4)C(=O)C34CCC4)cc2)C[C@H]1CO (racemic) ?
Output line: 100

====

Record form. Attribute: LNCaP-AR-F876L ANT pIC50. Fill in for each entry.
# Assay system: F876L mutant Androgen Receptor (AR-F876L) (Homo sapiens (Human), UniProt P10275, F877L)
# Experimental details: LNCaP-AR-F876L ANT reporter assay (antagonist mode)
# Type: cell-based
# Conditions used: antagonist mode; pIC50 = −Log10(IC50 in Molar)
No unit in the answer, please; the number alone is enough.

Input line: Request - read-out LNCaP-AR-F876L ANT pIC50 | tested on F876L mutant Androgen Receptor (AR-F876L) (Homo sapiens (Human), UniProt P10275, F877L) | compound CC(C)(C)OC(=O)N1C2CCC1CC(c1ccc(N3C(=S)N(c4cnc(C#N)c(C(F)(F)F)c4)C(=O)C34CCC4)cc1)C2 (stereo not shown)
Output line: 6.26

Input line: And the next one, CN1C2C=C(c3ccc(N4C(=S)N(c5cnc(C#N)c(C(F)(F)F)c5)C(=O)C45CCC5)cc3)CC1CC2 (stereo not shown) ?
Output line: 6.37

Input line: And the next one, N#Cc1ncc(N2C(=O)C3(CCC3)N(c3ccc(OC4CCNCC4)nc3)C2=S)cc1Cl ?
Output line: 7.33

Input line: And the next one, Cl.N#Cc1ncc(N2C(=O)C3(CCC3)N(c3cnc(OC4CCNCC4)nc3)C2=S)cc1C(F)(F)F ?
Output line: 6.51

Input line: And the next one, CN1CCC(Oc2ncc(N3C(=S)N(c4cnc(C#N)c(C(F)(F)F)c4)C(=O)C34CCC4)cn2)CC1 ?
Output line: 6.37

Input line: And the next one, COc1cc(N2C(=O)C3(CCC3)N(c3ccc(OC4CCN(C)CC4)cc3)C2=S)cnc1C#N ?
Output line: 6.67

Input line: And the next one, N#Cc1ncc(N2C(=O)C3(CCC3)N(c3ccc(C4=CC5CCC(C4)N5)cc3)C2=S)cc1C(F)(F)F (stereo not shown) ?
Output line: 6.01
